The compounds below have reported EC50 for H3 autoreceptors (Rattus norvegicus, UniProt Q9QYN8).
Output spec: scalar in µM, unitless text.

# example entries with known answers
[
  {
    "compound": "CC(CN)c1c[nH]cn1 (racemic) [3 (R, S), 4-(1-methyl 2-aminoethyl)-imidazole]",
    "reported-metric": "EC50",
    "numeric-result": 0.02
  },
  {
    "compound": "CC(C)(CN)c1c[nH]cn1",
    "reported-metric": "EC50",
    "numeric-result": 0.05
  },
  {
    "compound": "CC(C)(N)Cc1c[nH]cn1",
    "reported-metric": "EC50",
    "numeric-result": 0.02
  }
]

Moving on to another compound below.
Log: H3 autoreceptors (Rattus norvegicus, UniProt Q9QYN8), compound C[C@](N)(Cc1c[nH]cn1)C(=O)O (racemic) [6 (R, S), α-methylhistidine] , EC50 = 1

* * *

- target-under-test: H3 autoreceptors (Rattus norvegicus)
- Sequence (Q9QYN8 whole entry): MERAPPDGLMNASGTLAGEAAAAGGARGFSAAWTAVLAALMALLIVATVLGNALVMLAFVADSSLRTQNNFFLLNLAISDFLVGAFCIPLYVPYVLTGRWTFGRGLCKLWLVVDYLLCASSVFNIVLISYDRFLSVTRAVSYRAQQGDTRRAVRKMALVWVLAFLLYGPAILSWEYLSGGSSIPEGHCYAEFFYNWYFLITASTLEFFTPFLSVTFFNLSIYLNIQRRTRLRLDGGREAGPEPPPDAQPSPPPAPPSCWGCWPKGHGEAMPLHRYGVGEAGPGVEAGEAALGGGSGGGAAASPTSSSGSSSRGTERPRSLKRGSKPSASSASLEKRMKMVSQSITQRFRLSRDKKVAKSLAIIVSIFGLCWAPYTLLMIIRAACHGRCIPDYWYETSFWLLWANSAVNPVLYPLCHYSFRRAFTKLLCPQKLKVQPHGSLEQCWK
- condition-description: histamine = 100% (EC50 […] nM)
Each record here notes measured Activity relative to histamine (%) H3 receptors.
Output spec: scalar in %, unitless text.

[
  {
    "molecule": "CC(C)(CN)c1c[nH]cn1",
    "numeric-result": 120
  },
  {
    "molecule": "C[C@](N)(Cc1c[nH]cn1)C(=O)O (racemic) [6 (R, S), α-methylhistidine]",
    "numeric-result": 6
  }
]

Moving on to another molecule below.
Reported Activity relative to histamine (%) H3 receptors for CC(CN)c1c[nH]cn1 (racemic) [3 (R, S), 4-(1-methyl 2-aminoethyl)-imidazole] was 120
